Target: calpain-1 (Homo sapiens)
Sequence (P07384 1-714): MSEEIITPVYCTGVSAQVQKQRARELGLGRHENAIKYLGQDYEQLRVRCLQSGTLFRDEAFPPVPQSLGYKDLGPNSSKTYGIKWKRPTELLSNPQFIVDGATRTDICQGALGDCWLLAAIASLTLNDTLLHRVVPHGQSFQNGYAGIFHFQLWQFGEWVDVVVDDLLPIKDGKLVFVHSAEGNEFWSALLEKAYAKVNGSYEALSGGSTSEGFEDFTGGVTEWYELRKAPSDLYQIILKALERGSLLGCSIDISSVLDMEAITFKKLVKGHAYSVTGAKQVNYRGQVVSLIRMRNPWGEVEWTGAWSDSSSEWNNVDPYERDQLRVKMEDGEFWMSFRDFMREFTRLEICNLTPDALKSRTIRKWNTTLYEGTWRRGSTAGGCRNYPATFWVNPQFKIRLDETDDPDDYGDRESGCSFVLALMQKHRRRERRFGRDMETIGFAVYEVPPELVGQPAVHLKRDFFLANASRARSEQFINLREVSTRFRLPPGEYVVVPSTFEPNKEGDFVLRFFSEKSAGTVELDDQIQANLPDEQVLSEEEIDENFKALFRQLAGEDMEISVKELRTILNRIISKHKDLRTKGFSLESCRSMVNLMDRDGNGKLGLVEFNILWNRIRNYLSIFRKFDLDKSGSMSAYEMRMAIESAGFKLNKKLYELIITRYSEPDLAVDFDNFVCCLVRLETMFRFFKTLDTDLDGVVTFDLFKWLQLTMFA
Sequence (P04632 1-268 partner): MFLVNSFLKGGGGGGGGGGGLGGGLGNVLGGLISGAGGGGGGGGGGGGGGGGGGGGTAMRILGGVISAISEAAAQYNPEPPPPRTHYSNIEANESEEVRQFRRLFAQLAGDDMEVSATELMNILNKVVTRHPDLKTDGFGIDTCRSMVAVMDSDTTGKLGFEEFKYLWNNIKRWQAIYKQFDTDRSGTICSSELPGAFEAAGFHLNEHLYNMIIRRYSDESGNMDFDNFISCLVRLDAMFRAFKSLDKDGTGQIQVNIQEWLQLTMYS
Test: in vitro calpain-1 inhibition, succinic-Leu-Tyr-AMC substrate
Assay type: biochemical
Details: n = 3-5
endpoint label: IC50 (nM)
Expressed in nM, but write only the number.

Please report the recorded IC50 for CCC(NC(=O)C(CC(C)C)NC(=O)OCc1ccccc1)C(=O)C(=O)NCc1cc(OC)cc(OC)c1 (racemic) [Formula 1, Z-Leu-Abu-CONH—CH2-C6H3 (3, 5-(OMe)2)] .
910

----------
Target: calpain-2 (Homo sapiens)
Sequence (P17655 1-700): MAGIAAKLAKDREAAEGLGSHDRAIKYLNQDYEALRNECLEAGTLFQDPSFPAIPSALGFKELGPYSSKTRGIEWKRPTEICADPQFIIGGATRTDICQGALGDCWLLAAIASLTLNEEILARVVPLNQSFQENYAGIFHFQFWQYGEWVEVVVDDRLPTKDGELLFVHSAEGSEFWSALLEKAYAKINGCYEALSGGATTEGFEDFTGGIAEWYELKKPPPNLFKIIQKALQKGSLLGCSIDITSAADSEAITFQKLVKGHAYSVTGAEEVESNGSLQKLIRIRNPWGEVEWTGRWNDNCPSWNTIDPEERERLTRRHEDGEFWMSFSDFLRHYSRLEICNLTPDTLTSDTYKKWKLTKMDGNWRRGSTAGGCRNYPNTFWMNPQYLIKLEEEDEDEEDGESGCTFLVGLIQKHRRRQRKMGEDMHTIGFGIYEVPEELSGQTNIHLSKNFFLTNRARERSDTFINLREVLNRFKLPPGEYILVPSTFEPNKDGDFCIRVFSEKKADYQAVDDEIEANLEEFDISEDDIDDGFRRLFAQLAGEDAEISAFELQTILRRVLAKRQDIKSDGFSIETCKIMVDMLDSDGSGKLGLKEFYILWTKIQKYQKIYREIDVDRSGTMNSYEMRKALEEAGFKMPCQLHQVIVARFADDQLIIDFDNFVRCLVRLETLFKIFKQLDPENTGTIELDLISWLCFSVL
Sequence (P04632 1-268 partner): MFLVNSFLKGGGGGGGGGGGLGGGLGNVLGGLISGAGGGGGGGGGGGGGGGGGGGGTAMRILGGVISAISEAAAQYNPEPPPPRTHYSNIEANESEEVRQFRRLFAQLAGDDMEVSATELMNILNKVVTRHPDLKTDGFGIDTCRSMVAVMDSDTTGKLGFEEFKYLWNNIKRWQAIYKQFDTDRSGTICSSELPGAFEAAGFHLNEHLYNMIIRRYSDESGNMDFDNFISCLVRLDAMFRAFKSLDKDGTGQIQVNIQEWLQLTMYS
Assay: in vitro calpain-2 inhibition, succinic-Leu-Tyr-AMC substrate
Type: biochemical
Conditions: Example 1; chiral center 2 racemic; read-out: Ki for calpain-2, determined herein
endpoint label: Ki (nM)
Field: numeric (nM). Do not append units.

GET /values?readout=Ki&item= CCC(NC(=O)C(CC(C)C)NC(=O)OCc1ccccc1)C(=O)C(=O)NCc1cc(OC)cc(OC)c1 (racemic)
25
